These entries and their values trace back to patent US20120178701A1.

# SUBJECT_OF_TEST: human recombinant melanocortin-4 receptor (human), P32245
# Sequence (P32245 whole entry): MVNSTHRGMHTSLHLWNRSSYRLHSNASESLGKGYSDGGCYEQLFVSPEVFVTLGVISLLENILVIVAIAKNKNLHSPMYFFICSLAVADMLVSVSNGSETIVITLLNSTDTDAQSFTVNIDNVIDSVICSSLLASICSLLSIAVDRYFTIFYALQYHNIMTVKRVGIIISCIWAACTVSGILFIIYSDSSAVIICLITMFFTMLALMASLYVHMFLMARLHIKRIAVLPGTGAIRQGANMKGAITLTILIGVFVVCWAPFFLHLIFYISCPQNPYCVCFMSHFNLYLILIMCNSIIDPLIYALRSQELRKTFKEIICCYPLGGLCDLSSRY
# ASSAY_TEXT: competitive inhibition of Eu-NDP-α-MSH (TRF), hMC4-R HEK-293 membranes
# CONDITIONS_USED: remark: other sources report otherwise
pKi: −log10 of the molar value. Bridge positions count the residues as written; N and C are the ends. Square brackets hold non-standard residues; d marks the D form. Dap(betaPro) = diaminopropionic acid with a beta-prolyl group on the side-chain amine; Orn = NCCC[C@H](N)C(=O)O; Dab = NCC[C@H](N)C(=O)O
EXPERIMENTAL_READOUT: pKi

BINDER	EXPERIMENTAL_RESULT
RDXFRWK (HELM PEPTIDE1{[ac].R.D.[NC[C@H](N[*:1])C(=O)[*:2]].[dF].R.W.K.[am]}$PEPTIDE1,PEPTIDE1,3:R3-8:R3$$$V2.0; SMILES CC(=O)N[C@@H](CCCNC(=N)N)C(=O)N[C@H]1CC(=O)NCCCC[C@@H](C(N)=O)NC(=O)[C@H](Cc2c[nH]c3ccccc23)NC(=O)[C@H](CCCNC(=N)N)NC(=O)[C@@H](Cc2ccccc2)NC(=O)[C@H](CN)NC1=O) [Ac-Arg-cyclo(Asp-Dap-D-Phe-Arg-Trp-Lys)-NH2]	7.10
Ac-RD[Dab](Gly)[dF]RWK-NH2 (lactam 2-7) [Ac-Arg-cyclo(Asp-Dab(Glycly)-D-Phe-Arg-Trp-Lys)-NH2]	6.96
RDXFRWK (HELM PEPTIDE1{[ac].R.D.[Dab].[dF].R.W.K.[am]}|PEPTIDE2{[ac]}$PEPTIDE1,PEPTIDE2,4:R3-1:R2|PEPTIDE1,PEPTIDE1,3:R3-8:R3$$$V2.0; SMILES CC(=O)NCC[C@@H]1NC(=O)[C@@H](NC(=O)[C@H](CCCNC(=N)N)NC(C)=O)CC(=O)NCCCC[C@@H](C(N)=O)NC(=O)[C@H](Cc2c[nH]c3ccccc23)NC(=O)[C@H](CCCNC(=N)N)NC(=O)[C@@H](Cc2ccccc2)NC1=O) [Ac-Arg-cyclo(Asp-Dab(Acetyl)-D-Phe-Arg-Trp-Lys)-NH2]	7.06

[1] Ac-RD[Orn][dF]RWK-NH2 (lactam 2-7) [Ac-Arg-cyclo(Asp-Orn-D-Phe-Arg-Trp-Lys)-NH2]
[2] Ac-RD[Dap(betaPro)][dF]RWK-NH2 (lactam 2-7) [Ac-Arg-cyclo(Asp-Dap(betaPro)-D-Ph-Arg-Trp-Lys)-NH2]
### Prompt Between the entries labelled 1 and 2 , which has a larger pKi value on record? When you have decided, please share the label of that item.
### Response 1
